Ref: patent US20260200946A1

Target: KRAS(G12V)/SOS1 (Homo sapiens, UniProt P01116, G12V)
Sequence (P01116 1-188 isoform P01116-2 G12V): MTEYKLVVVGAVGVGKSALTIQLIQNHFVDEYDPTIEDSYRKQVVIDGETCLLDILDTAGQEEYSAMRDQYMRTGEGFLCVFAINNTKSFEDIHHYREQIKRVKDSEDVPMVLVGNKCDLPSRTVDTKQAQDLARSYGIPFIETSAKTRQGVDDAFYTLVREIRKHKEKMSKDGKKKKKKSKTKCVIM
Experiment: KRAS(G12V)/SOS1 homogeneous time-resolved fluorescence (HTRF) assay
Conditions: absence of GTP; 4° C., 3 hours; read-out: HTRF of KRASG12V-SOS1
Description: Binding of test compounds to KRAS(G12V) target protein, which in turn blocks KRAS(G12V) interaction with the SOS1 protein, was measured in the absences of GTP by homogeneous time-resolved fluorescence using the KRAS-G12V/SOS1 Binding Assay Kit (Cisbio, 63ADK000CB18PEH), following the manufacturer's instructions, except as noted. 3-fold serial dilutions of each test compound were prepared ranging from 20 µM to 1.02 nM. […]
reported metric: IC50

[Q] Suppose we examine the compound C#Cc1c(F)ccc2cc(O)cc(-c3ncc4c(N5CC6CCC(C5)N6C(=O)NC5CCNC5)nc(OCC5(CN6CCC(F)CC6)CC5)nc4c3F)c12 (stereo not drawn) ; what IC50 value has been reported?
[A] < 100 nM

[Q] // query: C#Cc1c(F)ccc2cc(O)cc(-c3ncc4c(N5CC6CCC(C5)N6C(=O)NC5CCOC5)nc(OCC5(CN6CCC(F)CC6)CC5)nc4c3F)c12 (stereo not drawn)
[A] < 100 nM

[Q] Another compound to look at: C#Cc1c(F)ccc2cc(O)cc(-c3ncc4c(N5CC6CCC(C5)N6C(=O)Nc5ccn[nH]5)nc(OCC5(CN6CCC(F)CC6)CC5)nc4c3F)c12
[A] < 100 nM
